B1: CPEB3 Ribozyme (parent)
chain: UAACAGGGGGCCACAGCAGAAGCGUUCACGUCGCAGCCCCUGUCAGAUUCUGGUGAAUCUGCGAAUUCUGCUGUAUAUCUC

# Variants of: B1
# experimental-protocol: self-cleavage, relative activity (ratio to wild type); higher = more cleavage; in vitro, sequencing
Catalogue of variants with associated self-cleavage
value-type: self-cleavage

In [3]: df
Out[3]:
          mut  reported_value
 0  U51A A65G            0.48
 1  U31A G33A            0.24
 2  A75G C81A            1.04
 3  A65G U72C            0.52
 4  C17G U26A            0.29
 5   A5G U54C            0.64
 6  C32A U49A            0.11
 7   G8A A28U            0.14
 8  A15C A56U             0.3
 9  G16C U49C            0.08
10  C40A U58C             0.1
11  G42A A65G            0.42
12  U72A C81U            1.11
13   A3G U49A            0.69
14  G42A A45G             0.3
15  U25C G36A            0.17
16   G9A G63A            0.12
17  U43C U80G            1.01
18   A3U A20U            0.45
19  C14U U31A            0.74
20  C27U A57G            0.17
21  A15G C59A            0.27
22  G33U U48C            0.08
23  A20U U58C            0.28
24  U41A U67C            0.21
25  A35C U43A            1.06
26  G53U U58C            1.08
27  U48C U74C            1.02
28  U25A U48A            0.32
29  A18U U72G             0.5
30  U51C U80C            1.15
31  A15C A20U            0.35
32  C23A U43C            0.23
